Data provenance: ChEMBL document CHEMBL1126041

- TARGET OF ASSAY: Leukotriene B4 receptor 1 (Homo sapiens)
- PROTOCOL NOTES: Inhibition of [3H]LTB4 binding to leukotriene B4 receptor from human peripheral neutrophils (PMN), at a concentration of 1 uM
OBSERVATION TYPE: inhibition

- COMPOUND: "CCc1cc(C(C)=O)c(O)cc1OCCCCCCc1nnn[nH]1"
  OBSERVATION TYPE: "inhibition"
  RESULT: "60%"
- COMPOUND: "CCc1cc(C(C)=O)c(O)cc1OCc1cccc(C#N)c1"
  OBSERVATION TYPE: "inhibition"
  RESULT: "61%"
- COMPOUND: "CCc1cc(C(C)=O)c(O)cc1OCCCCCCS(C)(=O)=O"
  OBSERVATION TYPE: "inhibition"
  RESULT: "62%"
- COMPOUND: "CCc1cc(C(C)=O)c(O)cc1OCCCCN(C)C"
  OBSERVATION TYPE: "inhibition"
  RESULT: "3%"
- COMPOUND: "CCC1(c2ccc(N)cc2)CCC(=O)NC1=O (configuration not stated)"
  OBSERVATION TYPE: "inhibition"
  RESULT: "29%"
- COMPOUND: "CCc1cc(C(C)=O)c(O)cc1OCCCCCC(C)(C)C(=O)O"
  OBSERVATION TYPE: "inhibition"
  RESULT: "73%"
- COMPOUND: "COCc1cc(C(C)=O)c(O)cc1OCCCCCCC#N"
  OBSERVATION TYPE: "inhibition"
  RESULT: "7%"
- COMPOUND: "CCCc1cc(C(C)=O)c(O)cc1OCCCCN"
  OBSERVATION TYPE: "inhibition"
  RESULT: "0%"
- COMPOUND: "CCCc1cc(C(C)=O)c(O)cc1OCCCCC#N"
  OBSERVATION TYPE: "inhibition"
  RESULT: "37%"
- COMPOUND: "CCc1cc(C(C)=O)c(O)cc1OCCCCCCCC(C)(C)C#N"
  OBSERVATION TYPE: "inhibition"
  RESULT: "29%"
- COMPOUND: "C=CCc1cc(C(C)=O)c(O)cc1OCc1cccc(C#N)c1"
  OBSERVATION TYPE: "inhibition"
  RESULT: "58%"
- COMPOUND: "CC(=O)c1cc(CO)c(OCCCCCCC#N)cc1O"
  OBSERVATION TYPE: "inhibition"
  RESULT: "8%"
